Reference source: ChEMBL document CHEMBL1781931

Please respond with reported Ki for every item in the list.
Biological target: Glyceraldehyde-3-phosphate dehydrogenase, glycosomal (Trypanosoma cruzi, UniProt P22513)
Sequence (P22513 whole entry): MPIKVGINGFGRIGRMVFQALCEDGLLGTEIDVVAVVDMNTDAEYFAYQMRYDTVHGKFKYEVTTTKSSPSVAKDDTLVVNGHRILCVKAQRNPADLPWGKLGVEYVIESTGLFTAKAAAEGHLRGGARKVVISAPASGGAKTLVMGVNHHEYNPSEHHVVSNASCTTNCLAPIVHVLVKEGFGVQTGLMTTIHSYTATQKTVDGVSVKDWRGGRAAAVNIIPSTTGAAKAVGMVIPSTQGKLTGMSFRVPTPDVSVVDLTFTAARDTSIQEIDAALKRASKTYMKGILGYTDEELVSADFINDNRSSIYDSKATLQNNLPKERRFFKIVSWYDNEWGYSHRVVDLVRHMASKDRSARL
Assay: Non-competitive inhibition of Trypanosoma cruzi recombinant glycosomal GAPDH expressed in Escherichia coli assessed as dissociation constant for binary enzyme-inhibitor complex using NAD+ substrate by Lineweaver-Burk plot method
Just the number in µM, nothing appended.

// Ki lookup, compound = C=CC/C=C\C/C=C\CCCCCCCc1cccc(O)c1C(=O)O , result: 4

// recorded Ki for CCCCCCCCCCCCc1cccc(O)c1C(=O)O : 5
